# target_or_test_system: T1, GFP-9S library array, motif 4 ND N98L;D124L (synthetic construct, N98L;D124L)
# T1 chain: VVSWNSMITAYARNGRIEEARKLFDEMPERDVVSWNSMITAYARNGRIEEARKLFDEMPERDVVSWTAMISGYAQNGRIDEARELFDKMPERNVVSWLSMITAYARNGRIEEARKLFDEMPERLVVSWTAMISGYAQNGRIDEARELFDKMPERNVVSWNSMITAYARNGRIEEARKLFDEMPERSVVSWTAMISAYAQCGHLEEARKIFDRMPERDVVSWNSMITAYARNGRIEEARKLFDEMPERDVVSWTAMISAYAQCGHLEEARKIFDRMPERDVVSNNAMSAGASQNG
# protocol_text: high-throughput RNA pulldown from lysate on Ni-NTA beads; HRP: 50 mM Tris pH 8, 150 mM NaCl, 1 mM beta-mercaptoethanol, 50 ug/ml BSA, 3 ug/ml yeast RNA, 0.5% heparin; ITC and FP: Tris pH 8, 200 mM KCl, 5% glycerol; MST: 50 mM Tris pH 8, 200 mM NaCl, 1 mM DTT, BSA, heparin, 0.05% Tween 20
# condition_details: tags: N-terminal His-eGFP; label: 5' Cy5
value_kind: pKd
// pKd is dimensionless: -log10 of concentration (M)

binder: AUUACACGUGA (ssRNA) [Cy5-rpoA]
pKd: 7.13

IN: Quick one: give measured pKd for AUUAGACGUGA (ssRNA) [Cy5-rpoA-G]
OUT: 7.12
